This section presents molecules with their documented IC50 values.
Target: UniProt:P43405
Test: Syk kinase inhibition test (HTRF method)
Assay type: biochemical
Details: HTRF, 100 μM ATP, 30 min room temperature, average; read-out: sykHTRF ave IC50
Procedure: Syk Kinase Inhibition Test (HTRF Method) After the compounds were serially diluted with dimethylsulfoxide (DMSO), 10 μL of those 10-fold diluted with kinase buffer (20 mM HEPES pH 7.0, 10 mM MgCl2, 50 mM NaCl, 1 mM 2-ME, 0.05% BSA) was added to opti-plate HTRF-96 (Packard) (final DMSO concentration: 2%). […]
Quantity name: IC50

1. CCOC(=O)CC(C)(C)NC(=O)c1ncc(-c2cccc(Nc3cc(C)ccn3)n2)s1 [Compound A-155] :: 100 to 1000 nM
2. Cc1ccnc(Nc2cccc(-c3cnc(CCCCC(=O)NS(C)(=O)=O)s3)n2)c1 [Compound A-171] :: 100 to 1000 nM
3. Cc1ccnc(Nc2cccc(-c3cnc(CN4CCOCC4)s3)n2)c1 [Compound A-193] :: 100 to 1000 nM
4. Cc1ccnc(Nc2cccc(-c3cnc(CNS(C)(=O)=O)s3)n2)c1 [Compound A-200] :: < 100 nM
5. Cc1ccnc(Nc2cccc(-c3cnc(CCN)s3)n2)c1 [Compound A-245] :: 100 to 1000 nM
6. Cc1ccnc(Nc2cccc(-c3cnc(C4CCCC(C(=O)N5CCC(O)CC5)C4)s3)n2)c1 (stereo not shown) [Compound A-272] :: 100 to 1000 nM
7. COc1ccc(C[C@H](N)c2ncc(-c3cccc(Nc4cc(C)ccn4)n3)s2)cc1OC [Compound A-138] :: 100 to 1000 nM
8. Cc1ccnc(Nc2cccc(-c3cnc([C@@H]4COC(=O)N4)s3)n2)c1 [Compound A-14] :: < 100 nM
9. Cc1ccnc(Nc2cccc(-c3cnc(CC(=O)N4CCC(O)CC4)s3)n2)c1 [Compound A-230] :: 100 to 1000 nM
10. Cc1ccnc(Nc2cccc(-c3cnc(C(O)Cc4ccc(O)cc4)s3)n2)c1 (stereo not shown) [Compound A-362] :: < 100 nM
